Catalogue of Kd values
SYSTEM: T1, hGDF11 homodimer (human, UniProt O95390 299-407)
T1 sequence (looked up): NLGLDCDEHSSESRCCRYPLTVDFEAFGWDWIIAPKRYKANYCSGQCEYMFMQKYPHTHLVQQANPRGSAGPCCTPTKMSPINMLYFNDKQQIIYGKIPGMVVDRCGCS
METHOD_DESCRIPTION: SPR, antibody captured, 25 nM antigen
Please don't drop the unit; write it after the number.

- BINDER: "8D12-1 (antibody, V domains shown, probably the same antibody as 8D12) VH: QVQLVESGGGVVQPGRSLRLSCAASGFTFSRYGIHWVRQAPGKGLEWVAVISYDGSDEYYVDSVKGRFSISRDNSKNTLYLQMNSLRPADSAVYYCVKGDLELGFDYWGQGTLVTVSS VL: DIVMTQAAPSIPVIPGESVSMSCRSSKSLLYSNGHTYVYWFVQRPGQSPQLLIYRMSNLASGVPDRFSGSGSGTAFTLRISRVEAEDVGVYYCMQNLEFPLTFGAGTKLELK"
  MEASURED_VALUE: "1.87 nM"

Now, please, on to the next binder.
Answer with the recorded Kd for the binder listed here: 3A4-3 (antibody, V domains shown) VH: QVQLVQSGGGLVKPGGSLRLSCAASGFIFNTYTMNWVRQAPGKGLEWVSSITSRGTYIFYSDSLKGRFTISRDNANNSLFLQMNSLRVEDTAVYYCSRDRGYTFGPDYWGQGTLVTVSS VL: DIQMTQSPSSLSASVGDRVTITCRASQDIRNDLGWYQQKPGKAPKGLIYAASSLQSGVPSRFSGSGSGTEFTLTISSLQPEDFATYHCLHYDFHPRTFGQGTKVEIK 0.51 nM
